- measuredTarget: T1, HTRA4, P83105
- T1 sequence (P83105 378-476, limits assumed, looked up): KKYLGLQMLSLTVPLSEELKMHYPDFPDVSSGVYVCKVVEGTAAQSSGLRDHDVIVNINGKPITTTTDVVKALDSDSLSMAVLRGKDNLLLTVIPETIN
- experimentSummary: holdup assay
- Parameters: key: below the threshold = too weak to quantify, mostly under pKd 3.1 to 4
- conditionLabel: plain residues with an end cap or a label only (N-terminal biotin on a linker: ttds)
readoutLabel: pKd

SSIDLWETAL [SLC15A5, A6NIM6] = below the threshold
PFRSRSPSEV [GPR6, P46095] = below the threshold
SRSRRRETAL [HPV33-E6, P06427] = below the threshold
GRLLGLETNV [ARHGEF26, Q96DR7] = below the threshold
DLDEEEDTHL [PODXL, O00592] = below the threshold
FVETQHQTQV [FAT3, Q8TDW7] = below the threshold
KLVIKTETTV [RASSF6, Q6ZTQ3] = 3.46
